Please provide measured TGI for the entries that follow.
- Tested on: OVCAR-4 ovarian
- experimental_details: NCI tumour cell line growth inhibition, 48 h

>  <compound>
CC(C)CC1C(=O)NCCC(NC(=O)C(N)Cc2ccc(O)cc2)C(=O)NC(Cc2ccccc2)C(=O)NC(Cc2ccccc2)NC1=O (stereo not drawn)

>  <assayed_system>
OVCAR-4 ovarian

>  <TGI>
> 100 µM

$$$$

Go through the items and report each one's TGI.
1. NC(N)=N/N=C\c1cccc(OCc2ccccc2)c1
2. Cn1c(/C=C(\C#N)c2ccccc2)nc2c(N3CCOCC3)nc(Cl)nc21
3. COc1ccc(/C=C\c2cc(OC)c(OC)c(OC)c2)cc1OC(=O)c1cccc(Cn2cc(CCOC(=O)[C@H](N)Cc3cn(C)c4ccccc34)nn2)c1
4. O=C1SS(=O)c2ccccc21 (stereo not drawn)
5. O=c1c2ccccc2n(C[C@H]2CO2)c2ccccc12
6. CCOP(=O)(CCCC(O)CNc1cc(Cl)nc(N)n1)OCC (stereo not drawn)
7. c1cc(Sc2nc(Sc3ccncc3)nc(Sc3ccncc3)n2)ccn1
8. O=c1[nH]/c(=C/c2ccc(OCc3ccccc3)cn2)c(=O)[nH]/c1=C/c1ccc([N+](=O)[O-])cc1

1. 27 µM
2. 2.5 µM
3. > 85.4 µM
4. > 100 µM
5. 7.89 µM
6. > 100 µM
7. > 100 µM
8. > 100 µM

Go through the items and report each one's TGI.
1. FC(F)(Sc1ccccn1)c1nc2ccccc2o1
2. CN(C)c1ccc([O][Bi]([Cl])[Cl])cc1
3. COc1ccc(/C=C/C(=O)c2ccc(SC)cc2)cc1OC
4. C=CC(=O)N1CCN(c2nc(=O)n(-c3c(C)ccnc3C(C)C)c3nc(-c4c(O)cccc4F)c(F)cc23)[C@@H](C)C1

1. > 100 µM
2. > 100 µM
3. > 100 µM
4. > 100 µM

###

- System: SF-268 CNS
- experimental_details: NCI tumour cell line growth inhibition, 48 h; in the data active means GI50 below about 0.43 µM; inactive means the rest
# valid calls are Y (active), N (inactive); nothing else

>  <molecule>
O=c1ccc2nc(-c3ccccc3)nn(-c3ccccn3)c-2c1

>  <class_name>
N

$$$$
>  <molecule>
Fc1ccc2c(c1)c(-c1nc(-c3c[nH]c4ncccc34)cs1)cn2CCCN1CCCCC1

>  <class_name>
N

$$$$
>  <molecule>
COC1CC2CCC(C)C(O)(O2)C(=O)C(=O)N2CCCCC2C(=O)OC(C(C)CC2CCC(O)C(OC)C2)CC(=O)C(C)C=C(C)C(O)C(OC)C(=O)C(C)CC(C)/C=C/C=C/C=C1C (centres undefined)

>  <class_name>
N

$$$$
>  <molecule>
C/C(=N\Nc1cc(C)c2cc(C)ccc2n1)c1ccccn1

>  <class_name>
Y

$$$$
>  <molecule>
Ic1ccccc1-c1ccccc1

>  <class_name>
N

$$$$
>  <molecule>
CC(C)[C@H](CO)Nc1nc(Nc2ccc(C(=O)NCCNS(=O)(=O)c3cccc4c(N(C)C)cccc34)c(Cl)c2)c2ncn(C(C)C)c2n1

>  <class_name>
N

$$$$
>  <molecule>
CCCc1cc2c(=O)c(C(=O)OC)c[nH]c2cc1N(CC)CC

>  <class_name>
N

$$$$
>  <molecule>
O=C(Nc1cc(Cl)cc(Cl)c1)c1ccc(NC2=C(Cl)C(=O)N(Cc3ccc(Cl)cc3Cl)C2=O)cc1

>  <class_name>
N

$$$$

Continue with the next molecule.
So what was the verdict on `C=C(CN1C(=O)[C@H]2CCCN2C(=O)c2ccccc21)c1ccc(C(=O)O)cc1` in this test? N
